Assay: Lipophilicity, log D of the compound at pH 7.4
Format: physicochemical
Conditions: buffer
REPORTED METRIC: logD
Numbers only.

The following compounds have reported results that may help.
Q: Entry O=C(NCc1cccs1)c1ccc2nc(-c3ccc(Oc4ccccc4)cc3)[nH]c2c1 : reported logD = ?
A: 3.68

Q: Follow-up item: O=C(NCc1nccs1)c1ccc2nc(-c3ccc(Oc4ccccc4Cl)cc3)[nH]c2c1
A: 2.24

Continuing:
Q: Entry O=C(NCc1ccc(Cl)s1)c1ccc2[nH]c(-c3ccc(C(=O)c4ccccc4C(F)(F)F)cc3)nc2c1 : reported logD = ?
A: 3.94

###

Kindly state metabolised for each of the entries shown.
Test: Drug metabolism in rat
Format: ADME, organism-based
Details: in vivo, read-out: Drug metabolism
Numbers only, in %.

The following compounds have reported results that may help.
Q: Entry OC(c1ccc2[nH]c(-c3ccc(OCc4ccccc4)cc3)nc2c1)c1ccccc1C(F)(F)F (racemic) : reported metabolised = ?
A: 20

Q: Follow-up item: O=C(NCc1ccc(Cl)s1)c1ccc2nc(-c3ccc(Oc4ccccc4Cl)cc3)[nH]c2c1
A: 31

Q: Follow-up item: O=C(NCCC1CC1)c1ccc2nc(-c3ccc(Oc4ccccc4Cl)cc3)[nH]c2c1
A: 38

Q: Follow-up item: O=C(NCc1ccc(Cl)s1)c1ccc2[nH]c(-c3ccc(C(=O)c4ccccc4C(F)(F)F)cc3)nc2c1
A: 40

Attention now turns to another entry.
Q: Entry O=C(NCc1nccs1)c1ccc2nc(-c3ccc(Oc4ccccc4Cl)cc3)[nH]c2c1 : reported metabolised = ?
A: 38

###

Experiment: Cmax in Zucker diabetic fatty rat at 30 mg/kg, po after 4 hrs
Assay type: ADME, organism-based
Set-up: dose 30 mg/kg, route oral
Conditions: in vivo
REPORTED METRIC: Cmax (ng/mL)
Numbers only, in ng/mL.

Q: Entry O=C(NCc1ccc(Cl)s1)c1ccc2[nH]c(-c3ccc(C(=O)c4ccccc4C(F)(F)F)cc3)nc2c1 : reported Cmax = ?
A: 1950

###

Molecular target: Acyl-CoA desaturase 1 (Rattus norvegicus, UniProt P07308)
Sequence (P07308 whole entry): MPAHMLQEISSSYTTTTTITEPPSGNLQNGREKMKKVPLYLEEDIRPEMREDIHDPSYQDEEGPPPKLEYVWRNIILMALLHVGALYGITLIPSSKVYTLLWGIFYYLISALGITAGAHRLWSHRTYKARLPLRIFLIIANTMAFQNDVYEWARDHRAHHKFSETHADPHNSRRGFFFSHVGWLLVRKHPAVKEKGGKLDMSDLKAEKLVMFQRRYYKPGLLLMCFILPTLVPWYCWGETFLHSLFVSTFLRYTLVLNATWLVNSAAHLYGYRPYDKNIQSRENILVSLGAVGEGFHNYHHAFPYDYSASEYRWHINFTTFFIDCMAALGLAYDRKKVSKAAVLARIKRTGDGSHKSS
Assay: Inhibition of SCD1 in Wistar rat liver microsomes using [14C] stearic acid as substrate incubated for 10 mins prior to substrate addition measured after 1 hr by chromatographic analysis
Set-up: species or system Microsome
REPORTED METRIC: log10 of IC50 (log10 of the value in µM)
Annotation: log10 of IC50, µM basis.

The following compounds have reported results that may help.
Q: Entry O=C(NCc1nccs1)c1cccc(-c2nc3cc(Oc4ccccc4C(F)(F)F)ccc3[nH]2)c1 : reported log10 of IC50 = ?
A: 0.11

Q: Follow-up item: O=C(Nc1nccs1)c1ccc2nc(-c3ccc(C(=O)c4ccccc4C(F)(F)F)cc3)[nH]c2c1
A: 0.66

Q: Follow-up item: O=C(NCCC1CC1)c1ccc2nc(-c3ccc(Oc4ccccc4)cc3)[nH]c2c1
A: 1.40

Please go through the list and note log10 of IC50 for each compound.
1. OC(c1ccc2[nH]c(-c3ccc(OCc4ccccc4)cc3)nc2c1)c1ccccc1C(F)(F)F (racemic)
2. CCOC(=O)c1ccc2[nH]c(-c3ccc(Oc4ccccc4C(F)(F)F)cc3)nc2c1
3. O=C(NCc1ccc(Cl)s1)c1ccc2nc(-c3ccc(Oc4ccccc4Cl)cc3)[nH]c2c1
4. O=C(NCc1nccs1)c1ccc2[nH]c(-c3ccc(Oc4ccccc4C(F)(F)F)cc3)nc2c1
5. O=C(c1ccc2nc(-c3ccc(OCc4ccccc4)cc3)[nH]c2c1)c1ccccc1C(F)(F)F
6. O=C(NCc1ccc(Cl)s1)c1ccc2[nH]c(-c3ccc(Oc4ccccc4)cc3)nc2c1
7. O=C(NCc1ccc(Cl)s1)c1cccc(-c2nc3cc(Oc4ccccc4C(F)(F)F)ccc3[nH]2)c1

A:
1. -1.09
2. 1.58
3. -0.08
4. -0.67
5. 1.12
6. 0.57
7. 0.34
